Molecular target: human sortilin (sSORT) (Homo sapiens, UniProt Q99523)
Sequence (Q99523 78-756 limits assumed): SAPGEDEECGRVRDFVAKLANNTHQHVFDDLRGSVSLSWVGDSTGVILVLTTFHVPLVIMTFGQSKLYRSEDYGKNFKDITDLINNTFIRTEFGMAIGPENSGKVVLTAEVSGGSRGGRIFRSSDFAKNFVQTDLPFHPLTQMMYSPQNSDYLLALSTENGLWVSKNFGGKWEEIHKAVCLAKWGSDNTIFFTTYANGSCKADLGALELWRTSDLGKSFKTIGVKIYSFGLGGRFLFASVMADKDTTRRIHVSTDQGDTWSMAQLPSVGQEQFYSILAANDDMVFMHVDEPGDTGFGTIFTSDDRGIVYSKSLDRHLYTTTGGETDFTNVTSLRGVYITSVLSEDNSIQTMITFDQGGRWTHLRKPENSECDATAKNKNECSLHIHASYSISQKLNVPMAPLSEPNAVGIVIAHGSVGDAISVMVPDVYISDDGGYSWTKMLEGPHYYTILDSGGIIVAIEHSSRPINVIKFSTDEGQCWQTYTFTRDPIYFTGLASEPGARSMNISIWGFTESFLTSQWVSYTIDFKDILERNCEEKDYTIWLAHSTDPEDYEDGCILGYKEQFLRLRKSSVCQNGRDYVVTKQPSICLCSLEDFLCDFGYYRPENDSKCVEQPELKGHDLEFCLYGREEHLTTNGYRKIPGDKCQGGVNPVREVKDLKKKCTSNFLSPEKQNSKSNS
Assay: Neurotensin competitive fluorescence polarization binding assay (FPA)
Details: mean IC50 values for sortilin inhibitors, IC50 (nM), 100 nM sSORT, 10 nM Neurotensin-Ahx-FITC, 1 h room temperature

{"molecule": "CC(C)(C)/C=C/C(NC(=O)c1ccc(-n2cnnc2)cc1)C(=O)O (stereo not shown) [SI23]", "IC50": "158 nM"}
{"molecule": "CC(C)(C)/C=C/C(NC(=O)c1cccc(-c2cccs2)c1)C(=O)O (stereo not shown) [SI52]", "IC50": "31 nM"}
{"molecule": "CC(C)(C)/C=C/C(NC(=O)c1ccc(Cl)[nH]1)C(=O)O (stereo not shown) [SI29]", "IC50": "80 nM"}
{"molecule": "CC(C)(C)/C=C/C(NC(=O)c1cc(Br)c[nH]1)C(=O)O (stereo not shown) [SI28]", "IC50": "55 nM"}
{"molecule": "Cn1nc(Cl)cc1C(=O)NC(/C=C/C(C)(C)C)C(=O)O (stereo not shown) [SI57]", "IC50": "45 nM"}
{"molecule": "CC(C)(C)/C=C/C(NC(=O)c1cc(Cl)cs1)C(=O)O (stereo not shown) [SI32]", "IC50": "52 nM"}
{"molecule": "Cn1nc(-c2cccnc2)cc1C(=O)NC(/C=C/C(C)(C)C)C(=O)O (stereo not shown) [SI59]", "IC50": "316 nM"}
{"molecule": "CC(C)(C)/C=C/C(NC(=O)c1ccc(Oc2ccc(Cl)cc2)cc1)C(=O)O (stereo not shown) [SI53]", "IC50": "148 nM"}
{"molecule": "CC(C)(C)/C=C/C(NC(=O)c1cccc(-n2ccnc2)c1)C(=O)O (stereo not shown) [SI25]", "IC50": "31 nM"}
{"molecule": "CC(C)(C)/C=C/C(NC(=O)c1ccc(COc2ccccc2)cc1)C(=O)O (stereo not shown) [SI55]", "IC50": "116 nM"}
